# Test system: C33A
# EXPERIMENT SUMMARY: Primary qHTS to identify gynecologic anti-cancer compounds using libraries of approved drugs and bioactive compounds (AID 1345084); note: nearly all actives have a fitted effect of over 55% in size; note: potency is the fitted concentration of half-maximal effect
# CONDITION LABEL: Gynecologic cancer cell panel viability, ATPlite luminescence, 48 h; series mostly up to 57.5 µM
Records with an inconclusive call do not appear. The source made the active and inactive calls. Calls come from the whole dose curve; as a rule, active = well fitted cell-killing curve with a large enough effect; inconclusive = small, poorly fitted or top-dose-only effect, or effect the other way; inactive = flat fitted curve, though single readings scatter.
PROPERTY LABEL: Potency

// solved cases for Potency follow
Ask: For the compound shown here, "CCn1cc(-c2ccnc3[nH]c(-c4cccc(CN(C)C)c4)cc23)c(-c2ccc(NC(=O)N(C)C)cc2)n1" , give the reported Potency.
Result: inactive

Ask: And the next one, "NC1(Cc2ccc(Cl)cc2)CCN(c2ncnc3[nH]ccc23)CC1" ?
Result: 10 µM (active)

Ask: And the next one, "COC(=O)c1ccc2c(C(=Nc3ccc(N(C)C(=O)CN4CCN(C)CC4)cc3)c3ccccc3)c(O)[nH]c2c1" ?
Result: inactive

Ask: And the next one, "Clc1cccc(-c2nnnn2Cc2cccnc2)c1Cl" ?
Result: inactive

Others:
Ask: For the compound shown here, "C#Cc1cccc(Nc2ncnc3cc(OC)c(OCCCCCCC(=O)NO)cc23)c1" , give the reported Potency.
Result: 3.55 µM (active)

Ask: And the next one, CC1(O)CC(c2nc(-c3ccc4ccc(-c5ccccc5)nc4c3)c3c(N)nccn23)C1 (stereo not given) ?
Result: inactive

Ask: And the next one, "CC(C)(O)c1cc2nc(-c3cnc(N)nc3)nc(N3CCOCC3)c2s1" ?
Result: 3.55 µM (active)

Ask: And the next one, "COc1cc2c(Nc3ccc(NC(=O)c4ccccc4)cc3)ncnc2cc1OCCCN1CCOCC1" ?
Result: 25.1 µM (active)

Ask: And the next one, "NC(=O)Nc1cc(-c2cccc(F)c2)sc1C(=O)N[C@H]1CCCNC1" ?
Result: 1.12 µM (active)

Ask: And the next one, "Cn1c2ccccc2c2c3c(c4c5ccccc5n(CCC#N)c4c21)CNC3=O" ?
Result: inactive

# credit: PubChem BioAssay (NCATS)
